The measured values listed here are drawn from the kinase profiling compilation of Christmann-Franck et al. (2016).

Measured kinase still bound, per cent of control accompanies every entry in the list below.
# system_name: MST1R (human)
# assay_remarks: KINOMEscan competition binding
# settings: compound 10.0 µM
readout_kind: kinase still bound, per cent of control (%)

{"molecule": "O=C(O)c1ccc(Nc2ncc3c(n2)-c2ccc(Cl)cc2C(c2c(F)cccc2F)=NC3)cc1", "readout_units": "%", "recorded_number": 92}
{"molecule": "CCN1CCN(Cc2ccc(Nc3ncc4c(n3)N(C)c3ccccc3C(=O)N4C)cc2C(F)(F)F)CC1", "readout_units": "%", "recorded_number": 100}
{"molecule": "O=C(NC1CC1)c1cccc(-c2ccc3c(NC(=O)C4CC4)n[nH]c3c2)c1", "readout_units": "%", "recorded_number": 90}
{"molecule": "COc1cc(C(=O)NC2CCN(C)CC2)ccc1Nc1ncc2c(n1)N(C1CCCC1)C(C)CC(=O)N2C (stereo not given)", "readout_units": "%", "recorded_number": 100}
{"molecule": "CC[C@@H]1C(=O)N(C)c2cnc(Nc3ccc(C(=O)NC4CCN(C)CC4)cc3OC)nc2N1C1CCCC1", "readout_units": "%", "recorded_number": 100}

----------
# system_name: PHKG2 (human) (UniProt P15735)
# Sequence (P15735 whole entry, looked up): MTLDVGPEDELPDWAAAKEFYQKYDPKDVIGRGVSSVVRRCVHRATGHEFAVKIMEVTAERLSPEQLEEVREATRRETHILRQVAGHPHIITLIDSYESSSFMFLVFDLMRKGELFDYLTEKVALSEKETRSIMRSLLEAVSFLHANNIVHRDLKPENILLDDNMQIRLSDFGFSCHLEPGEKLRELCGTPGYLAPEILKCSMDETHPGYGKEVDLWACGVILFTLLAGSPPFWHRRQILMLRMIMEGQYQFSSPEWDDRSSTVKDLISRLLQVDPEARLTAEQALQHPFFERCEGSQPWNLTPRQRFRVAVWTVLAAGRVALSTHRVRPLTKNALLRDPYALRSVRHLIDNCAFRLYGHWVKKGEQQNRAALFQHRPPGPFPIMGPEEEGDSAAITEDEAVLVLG
# assay_remarks: KINOMEscan competition binding
# settings: compound 10.0 µM
Mark each entry True if its kinase still bound, per cent of control sits below 80%, and False for all others.

{"compound": "CC[C@@H]1C(=O)N(C)c2cnc(Nc3ccc(C(=O)NC4CCN(C)CC4)cc3OC)nc2N1C1CCCC1", "qualitative_label": "True"}
{"compound": "CCN1CCN(Cc2ccc(Nc3ncc4c(n3)N(C)c3ccccc3C(=O)N4C)cc2C(F)(F)F)CC1", "qualitative_label": "True"}
{"compound": "O=C(NOC[C@H](O)CO)c1ccc(F)c(F)c1Nc1ccc(I)cc1F", "qualitative_label": "False"}
{"compound": "N#Cc1c(NC(=O)c2cccc3ccccc23)sc2c1CCCC2", "qualitative_label": "False"}
{"compound": "CCC(=O)N1CCN(c2ccc(-n3c(=O)ccc4cnc5ccc(-c6cnc7ccccc7c6)cc5c43)cc2C(F)(F)F)CC1", "qualitative_label": "False"}
{"compound": "CN(C)C/C=C/C(=O)Nc1cccc(Nc2ncc3c(n2)N(C)c2ccccc2C(=O)N3C)c1", "qualitative_label": "True"}
{"compound": "Cc1ccc(C(=O)Nc2cccc(C(F)(F)F)c2)cc1Nc1cncc(C(N)=O)c1", "qualitative_label": "False"}
{"compound": "C=CC(=O)Nc1cc(NC(=O)c2ccc(C)c(NC(=O)c3ccno3)c2)cc(C(F)(F)F)c1", "qualitative_label": "False"}
{"compound": "O=C(NC1CC1)c1cccc(-c2ccc3c(NC(=O)C4CC4)n[nH]c3c2)c1", "qualitative_label": "False"}
{"compound": "COc1cc(C(=O)NC2CCN(C)CC2)ccc1Nc1ncc2c(n1)N(C1CCCC1)CCC(=O)N2C(C)C", "qualitative_label": "False"}
{"compound": "CCOc1cc2ncc(C#N)c(Nc3ccc(OCc4ccccn4)c(Cl)c3)c2cc1NC(=O)/C=C/CN(C)C", "qualitative_label": "False"}
{"compound": "C=CC(=O)Nc1cccc(Oc2nc(Nc3ccc(N4CCN(C)CC4)cc3OC)ncc2Cl)c1", "qualitative_label": "True"}
{"compound": "Cn1c(=O)n(-c2ccc(C(C)(C)C#N)cc2)c2c3cc(-c4cnc5ccccc5c4)ccc3ncc21", "qualitative_label": "False"}
{"compound": "Nc1ccc(-c2ccc3ncc4ccc(=O)n(-c5cccc(C(F)(F)F)c5)c4c3c2)cn1", "qualitative_label": "False"}
{"compound": "OCCCNc1cc(-c2ccnc(Nc3cccc(Cl)c3)n2)ccn1", "qualitative_label": "False"}
{"compound": "Cc1ccc(NC(=O)c2cccc(C(C)(C)C#N)c2)cc1Nc1ccc2ncn(C)c(=O)c2c1", "qualitative_label": "False"}
{"compound": "C=CC(=O)Nc1cccc(Nc2nc(N[C@H]3CC[C@H](N(C)C)CC3)nc3c2ncn3C(C)C)c1", "qualitative_label": "True"}
{"compound": "COc1cc(C(=O)NC2CCN(C)CC2)ccc1Nc1ncc2c(n1)N(C1CCCC1)C(C)CC(=O)N2C (stereo not given)", "qualitative_label": "False"}
{"compound": "Cc1cc([C@@H](C)Nc2ccccc2C(=O)O)c2nc(N3CCOCC3)cc(=O)n2c1", "qualitative_label": "False"}
{"compound": "C[C@@H](Oc1cc(-n2cnc3ccc(CN4CCN(C)CC4)cc32)sc1C(N)=O)c1ccccc1C(F)(F)F", "qualitative_label": "True"}
{"compound": "CCCS(=O)(=O)Nc1ccc(F)c(C(=O)c2c[nH]c3ncc(-c4ccc(Cl)cc4)cc23)c1F", "qualitative_label": "False"}
{"compound": "O=C(O)c1ccc(Nc2ncc3c(n2)-c2ccc(Cl)cc2C(c2c(F)cccc2F)=NC3)cc1", "qualitative_label": "True"}
{"compound": "O=C1Nc2ccc(I)cc2/C1=C/c1cc(Br)c(O)c(Br)c1", "qualitative_label": "False"}
{"compound": "COc1cc(N2CCN(C)CC2)ccc1Nc1nc(N)c(C(=O)c2c(Cl)cccc2Cl)s1", "qualitative_label": "True"}
